All values here come from patent US9884863B2.

# Test system: AsPC1
# Assay text: MTS cell proliferation assay, AsPC1
# Type: cell-based, human
# Conditions used: Homo sapiens, ASPC1; Example 4 numbering, 72 h; >10 = no effect; read-out: IC50 AsPC1 (Table 4)
Readout label: pIC50
Numbers only, as −log10 of the molar value.

Solved entries:
Molecule | Readout value
O=C(Nc1ccc2c(c1)S(=O)(=O)C=C2)c1cc(Cl)ccc1O [Compd 12] | 5.72
N#C/C(=C\c1cccc(Br)n1)C(=O)Nc1ccc2c(c1)S(=O)(=O)C=C2 [Compound 10] | 5.81

Turning now to a further molecule:
Item: C[C@H](NC(=O)c1cc(Cl)ccc1O)c1ccccc1 [Compound 9] | pIC50: 5.12

---

Give melting point for every item shown.

Smi | melting point
O=C(Nc1nnc(-c2ccco2)o1)c1cc(Cl)ccc1O | 196 to 197 °C
N#C/C(=C\C1CCCCC1)C(=O)Nc1ccc2c(c1)S(=O)(=O)C=C2 | 180 to 181 °C
N#C/C(=C\c1ccccn1)C(=O)Nc1ccc2c(c1)S(=O)(=O)C=C2 | 234 to 235 °C
N#C/C(=C\c1cccnc1)C(=O)Nc1ccc2c(c1)S(=O)(=O)C=C2 | 255 to 256 °C
COc1cccc(/C=C(\C#N)C(=O)Nc2ccc3c(c2)S(=O)(=O)C=C3)c1 | 245 to 246 °C
N#C/C(=C\c1cccc(Cl)c1)C(=O)Nc1ccc2c(c1)S(=O)(=O)C=C2 | 234 to 235 °C
O=C(Nc1ccc2c(c1)S(=O)(=O)C=C2)c1ccncc1 | 251 to 252 °C
N#C/C(=C\c1ccccc1Br)C(=O)Nc1ccc2c(c1)S(=O)(=O)C=C2 | 226 to 227 °C

Turning now to a further compound:
Item: N#C/C(=C\c1ccccc1O)C(=O)Nc1ccc2c(c1)S(=O)(=O)C=C2 | melting point: 284 to 285 °C
